Test system: MS2 coat protein
PROTOCOL_DESCRIPTION: apparent KD of MS2 coat protein; designed switch direction (-1 OFF switch, 1 ON switch): 1; higher = weaker reporter binding
APPLIED_CONDITIONS: input ligand: microRNA oligo, concentration not stated
Record form. Attribute: apparent KD of MS2 coat protein. Fill in for each entry.
Provide the reading as a plain figure in nM.

Problem: What value of measured apparent KD of MS2 coat protein is listed for UUGAAGAAUUAAGGAUAUUGAGUACAUAUGUUUAACAUGAGGAUCACCCAUGUGGGUUGCGGUAUCGAGAAGGUAAAAUACUAG [Mat - same State NG 2 - JL mod - D73] (Eterna round: R96, puzzle: Same State NG 2) ?
Solution: 126

Problem: Then what about the sequence CCGAAAUAUGGAGGAUAUGGAGCCUUAUUGGCUCCAGAAGGUCAAAACAUGAGGAUCACCCAUGUAUCGGCGGUCAAUAGACCG [Eli NG1ss - 73] (Eterna round: R96, puzzle: Same State NG 1) ?
Solution: 81.7

Problem: Then what about the sequence UAUUAAUCUGUAGGAUAUCUAGGAUAUGGACGAGGAUCACCCGAGCAGCAUCAGCGCACCAGAGGAGAGAAGGACGCUUUGGUG [pwkr ssNG2 2F5 2FMN.2] (Eterna round: R96, puzzle: Same State NG 2) ?
Solution: 208

Problem: Then what about the sequence GUGGUCAGACAUGAGGAUCACCCAUGUGGAAUAAAUAAGGACUAGGAUAUGGAAUAUAGGAUAUACCAGAAGGAGUGGUUGGUG (Eterna round: R96, puzzle: Same State NG 3) ?
Solution: 36.5

Problem: Then what about the sequence AACAAUCUAUCUGAGGAUAUCAUGAAAUAAACAUGAGGAUCACCCAUGUGUAGGAAAACUGCAUAUGAGAAGGCAGAUAGAUUGA [salish99_ss2_r3_036] (Eterna round: R96, puzzle: Same State 2) ?
Solution: 465

Problem: Then what about the sequence UGGAGACGUCAAGGAUAUGCUACCGUUUCGGUAGCAGAAGGUGAUCACAUGAGGAUCACCCAUGUAUGCAUGCGUGAGCGUGCU [JL SSNG1 3.52] (Eterna round: R96, puzzle: Same State NG 1) ?
Solution: 2.49

Problem: Then what about the sequence AAAUAAAUGACUCAGGAUAUAUCAUAGAAUACAUGAGGAUCACCCAUGUUUUAAUAACAUGUUUGGUAGAAGGGAGUCAAUAAAU [LROPPY Same State 2 - v05_deltaG=1.86] (Eterna round: R96, puzzle: Same State 2) ?
Solution: 78.1

Problem: Then what about the sequence GUUACAUGAGGAUCACCCAUGUGUGUGUGGGAGUGAGUGGCUUAGGAUAUCUAUGAUUUUAGUUAAGAGAAGGAGGAUUGCUGU [SS-NG3-LRO07] (Eterna round: R96, puzzle: Same State NG 3) ?
Solution: 267

Problem: Then what about the sequence GAAUAAAUGAUAGGAUAUACAUGAGGAAUUCUCGUAGAAGGAUCAUGACAUGAGGAUCACCCAUGUAACGCUCGAAAGAGCGUA [Mat - Same State NG 1 - JL mod - D41] (Eterna round: R96, puzzle: Same State NG 1) ?
Solution: 733

Problem: Then what about the sequence AAAAUGGUAUGUUACAUGAGGAUCACCCAUGUACCGUCAUCUGAGGAUAUGGUGAUGUAGAAGAAUCAGAAGGCAGACAUUUAA [AK SSNG3-V2-25] (Eterna round: R96, puzzle: Same State NG 3) ?
Solution: 20

Problem: Then what about the sequence AGGCUCAGACGAGGAUAUGAUCAUGGCGCUUCGGCGCAUACAUGAGGAUCACCCAUGUAAAGUGAUCAGAAGGUGUCUGAGCCA [SSNG2/7-B1] (Eterna round: R96, puzzle: Same State NG 2) ?
Solution: 11

Problem: Then what about the sequence CUUAUUAAUGCAGGAUAUGAUUAACAUGAGGAUCACCCAUGUGGUGUUGUGAGUAAGGAGAGUGAUCAGAAGGGCAUUUUUUUU [JMF's solution 41] (Eterna round: R96, puzzle: Same State NG 2) ?
Solution: 410

Problem: Then what about the sequence AUUUCUAAUGCAGGAUAUGAUUAACAUGAGGAUCACCCAUGUGGUGUUGUGAGUAAGGAGAGUGAUCAGAAGGGCAUUUUUUUU [JMF's solution 99] (Eterna round: R96, puzzle: Same State NG 2) ?
Solution: 428

Problem: Then what about the sequence UGCUAGUGGGUAGGAUAUCUAGGAUAUGGGAAAGACUAAGUCUGUAGGUCACCUAACCCAGAAGGAGAGAAGGACCAUUCAGCU [pwkr ssNG2 2FMN + F9.26] (Eterna round: R96, puzzle: Same State NG 2) ?
Solution: 22.5

Problem: Then what about the sequence AUUUUAGUCAGAGGAUAUUGUUUAUCUCUAUUACAAGAAGGCUGAUCUUACUACCCACUUAUGAAACAUGAGGAUCACCCAUGU [JR_SSNG1_Sub016] (Eterna round: R96, puzzle: Same State NG 1) ?
Solution: 20.6

Problem: Then what about the sequence UGGCUGAGUCGAGGAUAUGAUCUUCAUAUAUAUACAUGAGGAUCACCCAUGUAUAAUUACAUGGAUCAGAAGGCGACUCAGCCA [SSNG2/13-A1] (Eterna round: R96, puzzle: Same State NG 2) ?
Solution: 22.9

Problem: Then what about the sequence UGACACACGGCAGGAUAUCGAUUCCAAAGGAAUCGAGAAGGGCCUCAUGUCGUGGAAACGUGACAUGAGGAUCACCCAUGUUGC [Omei SS(NG)1 Cv15] (Eterna round: R96, puzzle: Same State NG 1) ?
Solution: 15.8

Problem: Then what about the sequence CUUUAUCACUAUACAUGAGGAUCACCCAUGUUAUCAUCAUGAGAGGAUAUCGUAUUUGGAUUUUUCGAGAAGGCUCUAUUGUAU [JR_SSNG3_Sub077] (Eterna round: R96, puzzle: Same State NG 3) ?
Solution: 158

###

Tested on: MS2 coat protein
PROTOCOL_DESCRIPTION: apparent KD of MS2 coat protein; designed switch direction (-1 OFF switch, 1 ON switch): -1; higher = weaker reporter binding
APPLIED_CONDITIONS: input ligand: FMN 200 uM
Threshold rule: apparent KD of MS2 coat protein greater than or equal to 30 nM is Condition met; below that, Condition not met.

Problem: Assess whether reported apparent KD of MS2 coat protein for GAAGAAAACCAAGGAUAUCGGAAAGGAAGUGUACGAGAAGGUGGACAUGGACAUGAGGAUCACCCAUGUGGCCCGAUGCCGUGG [PowerStrip EXNG 1.5] (Eterna round: R96, puzzle: Exclusion NG 1) sits at 30 nM or higher.
Solution: Condition met

Problem: Then what about the sequence CUGGAGUCAGGAUAUGACGCAGUCCGCCCAAGUGGCGGAAAUCAGAAGGGACUUGAGGAUCACCCAAGUAAAAG [Resorama] (Eterna round: R97, puzzle: Exclusion 4) ?
Solution: Condition not met

Problem: Then what about the sequence CUAGCGAGUGUAGGAUAUCGGACUGUUUCAGUCUGAGAAGGACAUGAGGAUCACCCAUGUGUAGCUACGUGAGUAGCACGCUAG [JL ENG1 3.88] (Eterna round: R96, puzzle: Exclusion NG 1) ?
Solution: Condition met

Problem: Then what about the sequence UUUCCACAUGAGGAUCACCCAUGUCAGGAUAUUAUAGUUGGCCGAAAGGCGUCAGUGGUAAGAAGGGACGUUGA [Eternabot (L2) Solution 46] (Eterna round: R97, puzzle: Exclusion 1) ?
Solution: Condition not met

Problem: Then what about the sequence UAGCAACGAGGAUAUGCGGGCCUGAACCUAAAGUCGACCUUACAUGAGGAUCACCCAUGUAGAAGGCGUAGUGU [Eternabot (L2) Solution 71] (Eterna round: R97, puzzle: Exclusion 2) ?
Solution: Condition not met

###

Tested on: MS2 coat protein
PROTOCOL_DESCRIPTION: apparent KD of MS2 coat protein; higher = weaker reporter binding
APPLIED_CONDITIONS: Eterna round: R107; input ligand: theophylline 20 uM
Could you please classify the records by apparent KD of MS2 coat protein using these ranges: band 1 (below 30 nM), band 2 (30 nM to below 200 nM), band 3 (200 nM or more)

Problem: Bin? CUAUUUAUAGCGGCCGCCACUUACUCAUGAGGUAACAACAUGAGGAUCACCCAUGUUUGAGGAUCAAGGACCGGGCUAUGGAUAG [AstrosSSTryB#12]
Solution: band 2

Problem: Then what about the sequence UGCGUACAUGAGGAUCACCCAUGUACUGAAGGAGCGGGAGGCAUCUCAGGUAGGUCGCAGACAUGAGGAUCACCCAUGUAGUGGU [Exclusion Arginine A GF 18] ?
Solution: band 2

Problem: Then what about the sequence CCUGCGUUUCUUUUCUUUCGCAGGAAUGAUACCAGUAGGGAAACCUACCCUUGGCAGCAUGGGACAUGAGGAUCACCCAUGUAAU [SSThA NP+V+V2 #2] ?
Solution: band 3

Problem: Then what about the sequence ACAUGAGGAUCACCCAUGUUCCUCGCCGAUACCAGUGAAGAAGAACGCCCUUGGCAGCGGAAAGAAUAUUUUGGAGAUGAGAUAU [6.V] ?
Solution: band 3

Problem: Then what about the sequence UUAGUAACGACGGCCGCCACUGGAUAUGAACAUGAGGAUCACCCAUGUAGAGAUCCUAGAAUAAACAGGACCGGGUCUGAUAAUA [Exclusion Tryptophane B GF 2] ?
Solution: band 1

Problem: Then what about the sequence UGCAUCAUAAUCAUGUUGGUGCUAGGUGAUACCAGCAUCGAAAGAUGCCCUUGGCAGCACCAACAUGAGGAUCACCCAUGUAAUA [(MT)''-(M)'-(T')-(Theo)-(Ms2)_Design1/22_2] ?
Solution: band 2

Problem: Then what about the sequence UCAGUGCAAGGAAGGAGCGGGUACAUGAGGAUCACCCAUGUGCAAGUGGUGAGCGUCCGUGCCCAGGUAGGUCGCCUAGCCUGGU [Quisso] ?
Solution: band 2

Problem: Then what about the sequence AGUGUUAUAACUGAUACCAGACUUUUGCUUAUACAUGAGGAUCACCCAUGUAAAAUGGUUGUCCCUUGGCAGCAGAAGUUACACA [JR_SSTheophyB_Sub008] ?
Solution: band 2

Problem: Then what about the sequence ACUAGUUGUGCAGAUACCAGACAUGAGGAUCACCCAUGUUUGGGAUCUAAUGAUCAUCUUGUCCCUUGGCAGCUGUACAUCUAGA [Omei Theo B Exc v1] ?
Solution: band 2

Problem: Then what about the sequence UAUGUCGCCGAAGAUACCAGCCUGGCAAGCAACAUGAGGAUCACCCAUGUAAUUACUUAUGGCCCUUGGCAGCUUCAAAUAGAGC [theeternabot_sameState_MS2_Theo_B_42] ?
Solution: band 1

Problem: Then what about the sequence GAUUUAACAAAAGUUAGAUCAGUGGGUGAACGAGGACCGGUACGGCCGCCACUCGGACAUGAGGAUCACCCAUGUCCAUGUGAAA [AstrosExyTryA#20] ?
Solution: band 1
